The measurements presented in this section are drawn from ChEMBL document CHEMBL1817657.

# subjectOfTest: Voltage-gated inwardly rectifying potassium channel KCNH2 (Homo sapiens, UniProt Q12809, Y652A)
# Sequence (Q12809 whole entry Y652A): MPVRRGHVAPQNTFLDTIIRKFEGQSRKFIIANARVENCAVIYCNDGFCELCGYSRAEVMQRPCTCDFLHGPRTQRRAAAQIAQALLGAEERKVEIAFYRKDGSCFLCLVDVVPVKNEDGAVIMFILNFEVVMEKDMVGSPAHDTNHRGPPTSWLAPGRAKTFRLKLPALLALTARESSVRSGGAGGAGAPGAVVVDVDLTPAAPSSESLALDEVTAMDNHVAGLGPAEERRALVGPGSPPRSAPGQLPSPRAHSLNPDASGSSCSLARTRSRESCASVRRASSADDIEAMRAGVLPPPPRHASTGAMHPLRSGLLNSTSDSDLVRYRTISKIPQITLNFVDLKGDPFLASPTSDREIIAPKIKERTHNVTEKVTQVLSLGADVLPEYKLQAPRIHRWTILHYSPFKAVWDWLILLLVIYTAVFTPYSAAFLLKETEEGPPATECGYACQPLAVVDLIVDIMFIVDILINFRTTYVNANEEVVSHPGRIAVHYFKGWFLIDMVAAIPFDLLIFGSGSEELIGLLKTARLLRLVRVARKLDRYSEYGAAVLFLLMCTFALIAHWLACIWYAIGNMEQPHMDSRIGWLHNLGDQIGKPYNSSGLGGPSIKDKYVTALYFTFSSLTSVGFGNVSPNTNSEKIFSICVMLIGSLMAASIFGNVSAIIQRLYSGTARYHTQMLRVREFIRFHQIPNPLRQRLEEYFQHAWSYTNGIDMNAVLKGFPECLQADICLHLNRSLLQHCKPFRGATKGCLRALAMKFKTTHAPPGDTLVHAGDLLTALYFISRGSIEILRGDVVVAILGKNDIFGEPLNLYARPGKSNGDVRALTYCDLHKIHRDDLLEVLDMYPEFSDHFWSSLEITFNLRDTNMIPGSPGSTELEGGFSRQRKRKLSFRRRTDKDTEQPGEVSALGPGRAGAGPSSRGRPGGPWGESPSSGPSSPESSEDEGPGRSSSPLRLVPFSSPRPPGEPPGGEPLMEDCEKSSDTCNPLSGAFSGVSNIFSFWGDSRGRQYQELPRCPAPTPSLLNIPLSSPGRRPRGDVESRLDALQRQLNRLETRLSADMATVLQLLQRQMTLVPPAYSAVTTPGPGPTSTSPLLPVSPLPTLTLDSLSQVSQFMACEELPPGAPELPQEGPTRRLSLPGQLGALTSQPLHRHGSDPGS
# experimentalDetails: Inhibition of human ERG Y652A mutant channel expressed in CHO cells by whole-cell patch clamp technique
# Type: cell-based
Structures can show the parent of a compound that is named as a salt.
IC50 values by entry
Your answer is read as µM, so omit the unit and give the number.

CCCCN1CCCCC1C(=O)Nc1c(C)cccc1C.Cl (racemic) [BUPIVACAINE HYDROCHLORIDE] ... 95

Turning now to a further compound:
Query string: # input compound: CCCCN1CCCC[C@H]1C(=O)Nc1c(C)cccc1C [LEVOBUPIVACAINE HYDROCHLORIDE] ; wanted: its IC50
Result string: 83
